- targetUnderTest: Vitamin D3 receptor (Rattus norvegicus, UniProt P13053)
- Sequence (P13053 whole entry): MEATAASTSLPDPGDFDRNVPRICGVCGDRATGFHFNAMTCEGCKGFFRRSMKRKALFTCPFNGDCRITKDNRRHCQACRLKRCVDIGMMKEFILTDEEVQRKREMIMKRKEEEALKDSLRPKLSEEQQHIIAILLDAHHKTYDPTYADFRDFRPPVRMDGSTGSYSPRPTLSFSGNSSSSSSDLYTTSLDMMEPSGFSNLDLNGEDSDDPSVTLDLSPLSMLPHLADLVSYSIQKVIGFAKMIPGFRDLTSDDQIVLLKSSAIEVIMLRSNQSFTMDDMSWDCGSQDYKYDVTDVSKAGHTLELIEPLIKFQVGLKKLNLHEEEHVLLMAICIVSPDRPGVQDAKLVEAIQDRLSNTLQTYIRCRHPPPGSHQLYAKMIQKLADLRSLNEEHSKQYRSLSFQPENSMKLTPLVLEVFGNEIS
- protocolText: Activity at VDR in rat osteosarcoma cells assessed as induction of 24-hydroxylase reporter gene transcription by luciferase reporter gene assay
- Format: cell-based
measureName: EC50 (pM)

INSERT INTO results (structuresmiles, measurename, testresult) VALUES
  ('C=C1[C@H](O)CC(=C/C=C2\CCC[C@@H]3[C@@H]([C@@H](C)CCCC(C)(C)O)CC[C@@H]23)C[C@H]1O', 'EC50', 20);

a: C=C1[C@H](O)CC(=C/C=C2\CCC[C@]3(C)[C@@H](CCCCC(C)(C)O)CC[C@@H]23)C[C@H]1O
b: C=C1[C@H](O)CC(=C/C=C2\CCC[C@@H]3[C@@H](CCCCC(C)(C)O)CC[C@@H]23)C[C@H]1O
Exercise: Parameter metric = EC50. Return the lower-valued option from a and b . Indicate your choice by writing its label.
Key: b
